# target.or.system: m-cGAS (Mus musculus, UniProt Q8C6L5)
# Sequence (Q8C6L5 whole entry): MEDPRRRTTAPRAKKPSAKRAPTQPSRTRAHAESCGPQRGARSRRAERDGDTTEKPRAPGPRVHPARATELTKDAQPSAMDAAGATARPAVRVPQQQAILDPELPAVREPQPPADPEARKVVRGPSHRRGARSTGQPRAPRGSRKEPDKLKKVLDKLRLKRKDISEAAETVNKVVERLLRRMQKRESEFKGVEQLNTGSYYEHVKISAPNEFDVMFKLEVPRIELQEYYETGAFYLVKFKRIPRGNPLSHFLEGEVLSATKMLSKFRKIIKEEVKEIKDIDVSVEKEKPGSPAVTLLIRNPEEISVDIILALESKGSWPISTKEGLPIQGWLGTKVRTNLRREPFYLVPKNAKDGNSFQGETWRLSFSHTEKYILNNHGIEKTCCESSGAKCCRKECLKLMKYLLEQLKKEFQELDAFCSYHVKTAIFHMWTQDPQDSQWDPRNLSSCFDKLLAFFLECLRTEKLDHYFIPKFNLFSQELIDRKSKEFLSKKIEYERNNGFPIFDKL
# experiment.summary: RapidFire mass spectrometry (RF-MS) cGAS activity assay, m-cGAS
# condition.details: m-cGAS IC50, RF-MS; freshly sourced vendor powder
pIC50: −log10 of the molar value.
endpoint: pIC50

smiles=O=c1[nH]c2c(Cl)c(Cl)c(Cl)cc2o1 endpoint=pIC50 recorded_result=4.94
smiles=O=C1NC(=S)S/C1=C\c1ccc(-c2ccccc2C(=O)O)o1 endpoint=pIC50 recorded_result=5.02
smiles=CCC(=O)Nc1sc2c(c1-c1nc3ccccc3s1)CCN(CC)C2 endpoint=pIC50 recorded_result=5.12

----------
# Tested on: cGAS in RAW-Lucia cells
# experiment.summary: Lucia luciferase reporter assay in dsDNA-stimulated RAW-Lucia cells
# condition.details: Lucia luciferase per Suppl. Fig. 11a,b, read-out: cell-based IC50 in mouse RAW 264.7 cells
endpoint: pIC50
Answer as the number alone; pIC50 is minus log10 of concentration in mol/L.

Kindly state the measured pIC50 obtained for Cn1c2c(c3ccc(Cl)c(F)c31)CN(C(=O)CO)CC2 with cGAS in RAW-Lucia cells.
5.96

----------
Collected IC50 values appear next to each entry.
# System: cGAS in primary human macrophages
# experiment.summary: dsDNA-stimulated mRNA induction (qRT-PCR) in primary human macrophages
# Format: cell-based
# condition.details: Macrophage, read-out: IC50 CXCL10 mRNA, primary human macrophages
Your answer should be a plain number; it is taken to be in µM.

A selection of reference data follows.
smiles=O=C(CO)N1CCc2[nH]c3c(Cl)c(Cl)cc(-c4cn[nH]c4)c3c2C1 endpoint=IC50 recorded_result=0.59
smiles=Cn1ccc(-c2cc(Cl)c(Cl)c3[nH]c4c(c23)CN(C(=O)CO)CC4)n1 endpoint=IC50 recorded_result=0.49

For Nc1ccc(-c2cc(Cl)c(Cl)c3[nH]c4c(c23)CN(C(=O)CO)CC4)cn1 , what is its reported IC50?
0.87

----------
# target.or.system: h-cGAS (Homo sapiens)
# Sequence (Q8N884 whole entry): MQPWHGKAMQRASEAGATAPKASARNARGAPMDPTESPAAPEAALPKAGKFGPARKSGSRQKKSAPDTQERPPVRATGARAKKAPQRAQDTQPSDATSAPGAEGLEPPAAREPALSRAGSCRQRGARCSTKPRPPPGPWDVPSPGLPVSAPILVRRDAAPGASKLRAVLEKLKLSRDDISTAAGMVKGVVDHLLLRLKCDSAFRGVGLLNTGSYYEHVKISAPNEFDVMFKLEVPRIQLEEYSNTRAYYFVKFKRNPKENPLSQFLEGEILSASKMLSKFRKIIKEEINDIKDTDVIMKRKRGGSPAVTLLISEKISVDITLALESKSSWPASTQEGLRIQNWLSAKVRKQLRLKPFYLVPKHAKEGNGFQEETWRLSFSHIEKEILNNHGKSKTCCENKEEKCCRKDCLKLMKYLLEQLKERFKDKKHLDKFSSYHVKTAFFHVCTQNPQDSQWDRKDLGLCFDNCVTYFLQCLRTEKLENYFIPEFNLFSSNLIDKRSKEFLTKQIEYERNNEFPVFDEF
# experiment.summary: ATP-coupled luminescence (LUM, Kinase-Glo) high-throughput assay, h-cGAS
# Assay type: biochemical
# Design: His6-SUMO (N, cleaved yes); made in house; host or cells: E. coli BL21-CodonPlus(DE3)-RIL
Collected IC50 values appear next to each entry.
Your answer should be a plain number; it is taken to be in µM.

smiles=Clc1ccc2c(-n3ccnc3)ccnc2c1 endpoint=IC50 quantity_unit=µM recorded_result=6.49

For COCC(=O)N1CCc2[nH]c3c(Cl)cc(Cl)cc3c2C1 , what is its reported IC50?
1.2

----------
# target.or.system: h-cGAS (Homo sapiens)
# experiment.summary: RapidFire mass spectrometry (RF-MS) cGAS activity assay, h-cGAS
endpoint: IC50 (nM)
Your answer should be a plain number; it is taken to be in nM.

For Clc1ccc2c(-n3ccnc3)ccnc2c1 [RU-0166197_AA-001] , what is its reported IC50?
2640

----------
# Tested on: cGAS in THP1 cells
# experiment.summary: dsDNA-stimulated mRNA induction (qRT-PCR) in THP1 cells
# Type: cell-based, human
endpoint: inhibition of IFNB1 mRNA induction in human THP1 cells (in words)

smiles=O=C(CO)N1CCc2[nH]c3c(F)c(Br)ccc3c2C1 recorded_result="did not inhibit"
smiles=Cn1c2c(c3ccc(Cl)c(F)c31)CN(C(=O)CO)CC2 recorded_result="no inhibition"
smiles=O=C(CO)N1CCc2[nH]c3c(Cl)c(Br)ccc3c2C1 recorded_result="did not inhibit"
smiles=O=C(CO)N1CCc2[nH]c3c(Cl)c(Cl)ccc3c2C1 recorded_result="no inhibition"
